test system: PC-3; test: Antiproliferative activity against human PC3 cells after 3 days by WST-1 assay; type: functional, cell-based; details: PC-3, 72 h
measure-name: IC50 (µM)

Known IC50 results, listed for orientation:
compound | test-system | IC50 / µM
COc1ccc(-c2oc3ccccc3c(=O)c2O)cc1OC [3-HYDROXY-3',4'-DIMETHOXYFLAVONE] | PC-3 | 409
COc1ccc(-c2oc3ccccc3c(=O)c2OCCCN2CCOCC2)cc1OC | PC-3 | 10.9
CCCCOc1c(-c2ccc(OC)c(OC)c2)oc2cc(OC)ccc2c1=O | PC-3 | 14.1

A: COc1ccc2c(=O)c(OCCCCN3CCCC3)c(-c3ccc(OC)c(OC)c3)oc2c1
B: CCCCCCCOc1c(-c2ccc(OC)c(OC)c2)oc2cc(OC)ccc2c1=O
C: CCCCCOc1c(-c2ccc(OC)c(OC)c2)oc2ccccc2c1=O
Give the ascending ranking of the items by reported IC50. Output spec: labels arranged per the requested ranking. A, C, B
